tested on: MDA-468 (Breast Tumor); test: MDA-468 tumour cell line cytotoxicity assay; details: IC50 MCF-10A / IC50 MDA-468; fold more toxic to cancer cells than to normal cells
In this section we review reported Tumor Selectivity Differential Factor values for a set of compounds.
measurement-type: Tumor Selectivity Differential Factor

INSERT INTO results (compound, quantitative_readout) VALUES
  ('COc1cccc2c1C(=O)c1c(O)c3c(c(O)c1C2=O)C[C@@](O)(C(=O)CO)C[C@@H]3O[C@H]1C[C@H](N)[C@H](O)[C@H](C)O1', 0.1),
  ('CN(Cc1cnc2nc(N)nc(N)c2n1)c1ccc(C(=O)N[C@@H](CCC(=O)O)C(=O)O)cc1 [Methotrexate, methotrexate]', 1.5),
  ('COc1cc(C(=O)/C=C/c2ccc3c(c2)OCO3)cc(OC)c1OC', 120),
  ('CC/C(=C(\c1ccccc1)c1ccc(OCCN(C)C)cc1)c1ccccc1', 1.6);

---

experiment: MCF-10A normal cell line cytotoxicity assay; assay type: cell-based, human; conditions: human, MCF-10A normal breast cells; without TCDD
measurement-type: IC50 at 96 h

INSERT INTO assay_data (compound, measurement_type, result) VALUES
  ('CC/C(=C(\c1ccccc1)c1ccc(OCCN(C)C)cc1)c1ccccc1 [Tamoxifen, tamoxifen]', 'IC50 at 96 h', '6300 nM'),
  ('CN(Cc1cnc2nc(N)nc(N)c2n1)c1ccc(C(=O)N[C@@H](CCC(=O)O)C(=O)O)cc1 [Methotrexate, methotrexate]', 'IC50 at 96 h', '60 nM'),
  ('COc1cccc2c1C(=O)c1c(O)c3c(c(O)c1C2=O)C[C@@](O)(C(=O)CO)C[C@@H]3O[C@H]1C[C@H](N)[C@H](O)[C@H](C)O1 [Doxorubicin, doxorubicin]', 'IC50 at 96 h', '0.3 nM');

---

tested on: TCDD-induced MCF-7 cells; assay: TCDD-induced MCF-7 cell line cytotoxicity assay (MTT); details: read-out: Cytotoxicity TCDD-induced MCF-7 Cells IC50; 10 nM TCDD for 24 hours, then 96 hours with compound, MTT
measurement-type: IC50 (µM)

INSERT INTO assay_data (smiles_record, quantitative_readout) VALUES
  ('COc1ccc(C(=O)/C=C/c2ccc3c(c2)OCO3)c(OC)c1', 2.7),
  ('COc1ccc(C(=O)/C=C/c2ccc3c(c2)OCO3)c(OC)c1OC', 0.84),
  ('COc1ccc(OC)c(C(=O)/C=C/c2ccc3c(c2)OCO3)c1', 0.26),
  ('COc1cc(OC)cc(C(=O)/C=C/c2ccc3c(c2)OCO3)c1', 0.57);

---

assay: MCF-7 cell line (non-induced) cytotoxicity assay (MTT); format: cell-based; conditions: human, MCF-7 breast tumour cells, non-induced (no TCDD), non-induced MCF-7 cells
In this section we review reported IC50 at 96 h values for a set of compounds.
measurement-type: IC50 at 96 h

INSERT INTO measurements (smiles_record, measurement_type, result) VALUES
  ('COc1ccc(C(=O)/C=C/c2ccc3c(c2)OCO3)c(OC)c1', 'IC50 at 96 h', '7 µM'),
  ('COc1cc(C(=O)/C=C/c2ccc3c(c2)OCO3)cc(OC)c1OC', 'IC50 at 96 h', '0.92 µM'),
  ('COc1cc(OC)cc(C(=O)/C=C/c2ccc3c(c2)OCO3)c1', 'IC50 at 96 h', '3.5 µM'),
  ('COc1ccc(C(=O)/C=C/c2ccc3c(c2)OCO3)c(OC)c1OC', 'IC50 at 96 h', '2.8 µM'),
  ('COc1ccc(OC)c(C(=O)/C=C/c2ccc3c(c2)OCO3)c1', 'IC50 at 96 h', '3.5 µM');

---

test system: MDA-468 (Breast Tumor); experiment: MDA-468 tumour cell line cytotoxicity assay; conditions: read-out: Cytotoxicity MDA-468 (Breast Tumor) IC50; without TCDD
In this section we review reported IC50 values for a set of compounds.
measurement-type: IC50 (nM)

INSERT INTO measurements (compound, measurement_target, quantitative_readout) VALUES
  ('CC/C(=C(\c1ccccc1)c1ccc(OCCN(C)C)cc1)c1ccccc1', 'MDA-468 (Breast Tumor)', 4000),
  ('CN(Cc1cnc2nc(N)nc(N)c2n1)c1ccc(C(=O)N[C@@H](CCC(=O)O)C(=O)O)cc1 [Methotrexate, methotrexate]', 'MDA-468 (Breast Tumor)', 40),
  ('COc1cccc2c1C(=O)c1c(O)c3c(c(O)c1C2=O)C[C@@](O)(C(=O)CO)C[C@@H]3O[C@H]1C[C@H](N)[C@H](O)[C@H](C)O1', 'MDA-468 (Breast Tumor)', 3);

---

In this section we review reported Tumor Selectivity Differential Factor values for a set of compounds.
test system: TCDD-induced MCF-7 cells; assay: TCDD-induced MCF-7 cell line cytotoxicity assay (MTT); conditions: IC50 MCF-7 cells / IC50 TCDD-induced MCF-7 cells; fold more toxic to "tumour" cells than to "normal" cells
measurement-type: Tumor Selectivity Differential Factor

INSERT INTO assay_data (smiles_record, quantitative_readout) VALUES
  ('COc1ccc(OC)c(C(=O)/C=C/c2ccc3c(c2)OCO3)c1', 13),
  ('COc1cc(OC)cc(C(=O)/C=C/c2ccc3c(c2)OCO3)c1', 6),
  ('COc1cc(C(=O)/C=C/c2ccc3c(c2)OCO3)cc(OC)c1OC', 65),
  ('COc1ccc(C(=O)/C=C/c2ccc3c(c2)OCO3)c(OC)c1', 3),
  ('COc1ccc(C(=O)/C=C/c2ccc3c(c2)OCO3)c(OC)c1OC', 3);
